# method_notes: In vitro permeability in Caco-2 cells
# Format: in vitro ADME
# measurement_parameters: human, Caco-2, with PYRO 30 μM; PYRO 30 μM, pH 7.4/7.4, Table 8; read-out: PAPP (A-B)
Counter-ions that a name gives are not always drawn.
measurement_name: Papp A→B at 2 h, 1 μM
The answer consists of two parts: a number and, after it, its unit.

Query: Indicate its recorded Papp A→B at 2 h, 1 μM; the molecule in question is O=C(NCCN1CCCC1)c1cc(-c2ccc(CN3CCOCC3)cc2)nc2ccc(F)cc12 [M1, succinate salt]
Result: 7.29 ×10⁻⁶ cm/s

---

# method_notes: In vitro permeability in Caco-2 cells
# Assay type: in vitro ADME
# measurement_parameters: human, Caco-2, with PYRO 10 μM; PYRO 10 μM, pH 7.4/7.4, Table 8
Counter-ions that a name gives are not always drawn.
measurement_name: Papp at 2 h, 1 μM (nm/s)
Give the number; nm/s is assumed, so skip it.

Query: Indicate its recorded Papp at 2 h, 1 μM; the molecule in question is O=C(NCCN1CCCC1)c1cc(-c2ccc(CN3CCOCC3)cc2)nc2ccc(F)cc12 [M1, succinate salt]
Result: 113

---

# method_notes: In vitro permeability in Caco-2 cells
# Assay type: in vitro ADME
# measurement_parameters: human, Caco-2, pH 7.4, with Cyclosporine A 10 μM, with Cyclosporine A 10 μM, pH 7.4/7.4, Table 7; read-out: RECOVERY basolateral to apical (B-A)
Where a name gives a salt, the structure may show the parent alone.
measurement_name: recovery at 2 h, 1 μM (%)
Give the number; % is assumed, so skip it.

Query: Indicate its recorded recovery at 2 h, 1 μM; the compound in question is O=C(NCCN1CCCC1)c1cc(-c2ccc(CN3CCOCC3)cc2)nc2ccc(F)cc12 [M1, succinate salt]
Result: 86.3

---

# method_notes: In vitro permeability in Caco-2 cells
# Assay type: in vitro ADME
# measurement_parameters: human, Caco-2, pH 7.4, with PYRO 30 μM, PYRO 30 μM, pH 7.4/7.4, Table 8
Counter-ions that a name gives are not always drawn.
measurement_name: efflux ratio at 2 h, 1 μM
Please respond with just the number, no unit label.

Query: Indicate its recorded efflux ratio at 2 h, 1 μM; the compound in question is O=C(NCCN1CCCC1)c1cc(-c2ccc(CN3CCOCC3)cc2)nc2ccc(F)cc12 [M1, succinate salt]
Result: 5.06

---

# method_notes: In vitro permeability in Caco-2 cells
# Type: in vitro ADME
# measurement_parameters: human, Caco-2, with PYRO 3 μM; PYRO 3 μM, pH 7.4/7.4, Table 8; read-out: PAPP (B-A)
Counter-ions that a name gives are not always drawn.
measurement_name: Papp B→A at 2 h, 1 μM (×10⁻⁶ cm/s)
Give the number; ×10⁻⁶ cm/s is assumed, so skip it.

Query: Indicate its recorded Papp B→A at 2 h, 1 μM; the compound in question is O=C(NCCN1CCCC1)c1cc(-c2ccc(CN3CCOCC3)cc2)nc2ccc(F)cc12 [M1, succinate salt]
Result: 39.1

---

# method_notes: In vitro permeability in Caco-2 cells
# Type: in vitro ADME
# measurement_parameters: human, Caco-2, with PYRO 100 μM; PYRO 100 μM, pH 7.4/7.4, Table 8; read-out: PAPP (A-B)
Where a name gives a salt, the structure may show the parent alone.
measurement_name: Papp A→B at 2 h, 1 μM (×10⁻⁶ cm/s)
Give the number; ×10⁻⁶ cm/s is assumed, so skip it.

Query: Indicate its recorded Papp A→B at 2 h, 1 μM; the compound in question is O=C(NCCN1CCCC1)c1cc(-c2ccc(CN3CCOCC3)cc2)nc2ccc(F)cc12 [M1, succinate salt]
Result: 19.3

---

# method_notes: In vitro permeability in Caco-2 cells
# Format: in vitro ADME
# measurement_parameters: human, Caco-2, with PYRO 10 μM; PYRO 10 μM, pH 7.4/7.4, Table 8; read-out: PAPP (B-A)
Counter-ions that a name gives are not always drawn.
measurement_name: Papp B→A at 2 h, 1 μM (nm/s)
Give the number; nm/s is assumed, so skip it.

Query: Indicate its recorded Papp B→A at 2 h, 1 μM; the compound in question is O=C(NCCN1CCCC1)c1cc(-c2ccc(CN3CCOCC3)cc2)nc2ccc(F)cc12 [M1, succinate salt]
Result: 376

---

# method_notes: In vitro permeability in Caco-2 cells
# Type: in vitro ADME
# measurement_parameters: human, Caco-2, pH 7.4, with Cyclosporine A 10 μM, with Cyclosporine A 10 μM, pH 7.4/7.4, Table 7; read-out: RECOVERY apical to basolateral (A-B)
# Experimental: Caco-2 cells are maintained in DMEM in an atmosphere of 8.5% CO2. For transport experiments 0.125×10^6 cells/well of are seeded on polycarbonate filter inserts and are allowed to grow and differentiate for 14±1 days before the cell monolayers are used for experiments. Drug transport experiments are carried out using a cocktail approach in a four-dimensional setting. […] The mixture is centrifuged and supernatant analyzed by LC-MS/MS. […]
Structures can show the parent of a compound that is named as a salt.
measurement_name: recovery at 2 h, 1 μM (%)
Give the number; % is assumed, so skip it.

Query: Indicate its recorded recovery at 2 h, 1 μM; the compound in question is O=C(NCCN1CCCC1)c1cc(-c2ccc(CN3CCOCC3)cc2)nc2ccc(F)cc12 [M1, succinate salt]
Result: 72.5

---

# method_notes: In vitro permeability in Caco-2 cells
# Assay type: in vitro ADME
# measurement_parameters: human, Caco-2, with PYRO 1 μM; PYRO 1 μM, pH 7.4/7.4, Table 8; read-out: PAPP (B-A)
Counter-ions that a name gives are not always drawn.
measurement_name: Papp B→A at 2 h, 1 μM (×10⁻⁶ cm/s)
Give the number; ×10⁻⁶ cm/s is assumed, so skip it.

Query: Indicate its recorded Papp B→A at 2 h, 1 μM; the compound in question is O=C(NCCN1CCCC1)c1cc(-c2ccc(CN3CCOCC3)cc2)nc2ccc(F)cc12 [M1, succinate salt]
Result: 31.4

---

# method_notes: In vitro permeability in Caco-2 cells
# Type: in vitro ADME
# measurement_parameters: human, Caco-2, pH 7.4, with PYRO 3 μM, PYRO 3 μM, pH 7.4/7.4, Table 8
Where a name gives a salt, the structure may show the parent alone.
measurement_name: efflux ratio at 2 h, 1 μM

Query: Indicate its recorded efflux ratio at 2 h, 1 μM; the compound in question is O=C(NCCN1CCCC1)c1cc(-c2ccc(CN3CCOCC3)cc2)nc2ccc(F)cc12 [M1, succinate salt]
Result: 10.2

---

# method_notes: In vitro permeability in Caco-2 cells
# Format: in vitro ADME
# measurement_parameters: human, Caco-2, pH 7.4, no P-gp inhibitor, pH 7.4/7.4, Table 7; read-out: RECOVERY basolateral to apical (B-A)
Where a name gives a salt, the structure may show the parent alone.
measurement_name: recovery at 2 h, 1 μM (%)
Give the number; % is assumed, so skip it.

Query: Indicate its recorded recovery at 2 h, 1 μM; the compound in question is O=C(NCCN1CCCC1)c1cc(-c2ccc(CN3CCOCC3)cc2)nc2ccc(F)cc12 [M1, succinate salt]
Result: 65.4

---

# method_notes: In vitro permeability in Caco-2 cells
# Format: in vitro ADME
# measurement_parameters: human, Caco-2, with none (no P-gp inhibitor); no P-gp inhibitor, pH 7.4/7.4, Table 7; read-out: PAPP basolateral to apical (B-A)
Structures can show the parent of a compound that is named as a salt.
measurement_name: Papp B→A at 2 h, 1 μM (×10⁻⁶ cm/s)
Give the number; ×10⁻⁶ cm/s is assumed, so skip it.

Query: Indicate its recorded Papp B→A at 2 h, 1 μM; the compound in question is O=C(NCCN1CCCC1)c1cc(-c2ccc(CN3CCOCC3)cc2)nc2ccc(F)cc12 [M1, succinate salt]
Result: 54.2

---

# method_notes: In vitro permeability in Caco-2 cells
# Type: in vitro ADME
# measurement_parameters: human, Caco-2, pH 7.4, with PYRO 10 μM, PYRO 10 μM, pH 7.4/7.4, Table 8
Where a name gives a salt, the structure may show the parent alone.
measurement_name: efflux ratio at 2 h, 1 μM
Please respond with just the number, no unit label.

Query: Indicate its recorded efflux ratio at 2 h, 1 μM; the molecule in question is O=C(NCCN1CCCC1)c1cc(-c2ccc(CN3CCOCC3)cc2)nc2ccc(F)cc12 [M1, succinate salt]
Result: 11

---

# method_notes: In vitro permeability in Caco-2 cells
# Assay type: in vitro ADME
# measurement_parameters: human, Caco-2, pH 7.4, with PYRO 0.3 μM, PYRO 0.3 μM, pH 7.4/7.4, Table 8
# Description: Caco-2 cells are maintained in DMEM in an atmosphere of 8.5% CO2. For transport experiments 0.125×10^6 cells/well of are seeded on polycarbonate filter inserts and are allowed to grow and differentiate for 14±1 days before the cell monolayers are used for experiments. Drug transport experiments are carried out using a cocktail approach in a four-dimensional setting. […] The mixture is centrifuged and supernatant analyzed by LC-MS/MS. […]
Structures can show the parent of a compound that is named as a salt.
measurement_name: efflux ratio at 2 h, 1 μM
Please respond with just the number, no unit label.

Query: Indicate its recorded efflux ratio at 2 h, 1 μM; the compound in question is O=C(NCCN1CCCC1)c1cc(-c2ccc(CN3CCOCC3)cc2)nc2ccc(F)cc12 [M1, succinate salt]
Result: 10.1
